study-target: Human STAT6 (truncated, aa122-658, with N-terminal His-tag) (Homo sapiens, UniProt P42226)
Construct: Human STAT6 (truncated, aa122-658, with N-terminal His-tag, expressed in insect cells); His-tag (N); made in house; host or cells: insect cells
Sequence (P42226 122-658): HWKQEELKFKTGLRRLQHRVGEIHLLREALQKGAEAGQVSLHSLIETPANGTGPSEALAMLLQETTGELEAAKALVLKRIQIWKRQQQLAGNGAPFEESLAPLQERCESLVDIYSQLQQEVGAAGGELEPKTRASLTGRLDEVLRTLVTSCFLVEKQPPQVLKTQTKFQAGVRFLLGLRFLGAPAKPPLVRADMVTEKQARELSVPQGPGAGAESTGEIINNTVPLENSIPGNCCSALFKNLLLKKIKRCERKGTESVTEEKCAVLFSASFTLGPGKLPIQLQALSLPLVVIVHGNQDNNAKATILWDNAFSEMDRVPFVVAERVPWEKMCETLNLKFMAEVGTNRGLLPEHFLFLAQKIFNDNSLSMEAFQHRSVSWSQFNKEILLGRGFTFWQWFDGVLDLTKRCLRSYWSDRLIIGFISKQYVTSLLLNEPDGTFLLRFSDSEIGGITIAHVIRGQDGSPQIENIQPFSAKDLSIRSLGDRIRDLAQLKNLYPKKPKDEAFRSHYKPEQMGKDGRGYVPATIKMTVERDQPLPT
assay-summary: Surface plasmon resonance (SPR) assay, binding to human STAT6
applied-conditions: Biacore 8K, 25° C, immobilized human STAT6 on CM5 chip, multi-cycle kinetics; geometric mean
pKd: −log10 of the molar value.
recorded-metric: pKd

>  <compound>
CNc1ccn(-c2ccnc3c2cc(CN2CCN(c4ccc(C(=O)N(C)C)cc4)C[C@@H]2C)n3C)c(=O)c1

>  <quantitative-result>
7.23

$$$$
>  <compound>
CNc1ccn(-c2ccnc3c2cc(CN2CC=C(c4ccc(C(=O)N(C)C)cc4OC)CC2)n3C)c(=O)c1

>  <quantitative-result>
7.73

$$$$
>  <compound>
CN(C)C(=O)c1ccc(C2CCN(Cc3cc4c(-n5ccc6c(c5=O)CCCN6)ccnc4n3C)CC2)cc1

>  <quantitative-result>
7.60

$$$$
>  <compound>
CNc1ccn(-c2ccnc3c2cc(C(C)N2CCC(c4ccc(C(=O)N(C)C)cc4)CC2)n3C)c(=O)c1 (stereo not shown)

>  <quantitative-result>
7.79

$$$$
>  <compound>
CNc1ccn(-c2ccnc3c2cc(CN2CC=C(c4ccc(C(=O)N(C)C)cc4C(F)(F)F)CC2)n3C)c(=O)c1

>  <quantitative-result>
7.84

$$$$
>  <compound>
CN(C)C(=O)c1ccc(C2CCN(Cc3cc4c(-n5ccc(N)c(COC(C)(C)C)c5=O)ccnc4n3C)CC2)cc1

>  <quantitative-result>
7.01

$$$$
>  <compound>
CN(C)C(=O)c1ccc(C2CCN(Cc3cc4c(-n5ccc(N)c(C6CC6)c5=O)ccnc4n3C)CC2)cc1

>  <quantitative-result>
7.12

$$$$

* * *

Tested on: Eotaxin-3 (CCL26) release in human whole blood stimulated with IL-4
assay-summary: Human whole blood eotaxin-3 assay (IL-4 stimulated eotaxin-3 release)
Type: cell-based
applied-conditions: Homo sapiens, 48 h, human whole blood stimulated with recombinant human IL-4, 48 h; given for test compounds with <80% Emax; geometric mean
Method: Human Whole Blood Eotaxin-3 Assay This was a human whole blood assay using recombinant human Interleukin 4 to stimulate the blood and measuring the ability of the test compounds to inhibit eotaxin-3 release. The biological activities of the test compounds have been tested in human whole blood stimulated with IL-4 measuring Eotaxin-3 release. The test compounds were added to 384 well clear flat-bottom plate in a 4-fold serial dilution in triplicates using a liquid handler. […]

>  <molecule>
CNc1ccn(-c2ccnc3c2cc(CN2CCC(c4ccc(C(=O)N(C)C)cc4C)CC2)n3C)c(=O)c1

>  <Emax>
70 to 80%

$$$$
>  <molecule>
[2H]C([2H])([2H])N(C(=O)c1ccc(C2CCN([C@@H](C)c3cc4c(-n5ncc(N)cc5=O)ccnc4n3C)CC2)cc1)C([2H])([2H])[2H]

>  <Emax>
20 to 30%

$$$$
>  <molecule>
CN(C)C(=O)c1ccc(C2CCN(Cc3cc4c(-n5cc(F)c(N)nc5=O)ccnc4n3C)CC2)cc1

>  <Emax>
70 to 80%

$$$$
>  <molecule>
[2H]C([2H])([2H])N(C(=O)c1ccc(C2CCN(Cc3cc4c(-n5ccc(N)c(C)c5=O)ccnc4n3C)CC2)cc1)C([2H])([2H])[2H]

>  <Emax>
70 to 80%

$$$$
>  <molecule>
CN(C)C(=O)c1ccc(C2CCN(Cc3cc4c(-n5ccc(N)nc5=O)ccnc4n3C)CC2)cc1

>  <Emax>
70 to 80%

$$$$
>  <molecule>
CNc1ccn(-c2ccnc3c2cc(CN2CC=C(c4ccc(C(=O)N(C)C)cc4)CC2)n3C)c(=O)c1

>  <Emax>
40 to 50%

$$$$
>  <molecule>
Cc1cc(C(=O)N(C)C)cc(F)c1C1CCN([C@H](C)c2cc3c(-n4ccc5c(c4=O)CCN5)ccnc3n2C)CC1 (single isomer, unassigned)

>  <Emax>
40 to 50%

$$$$

* * *

Tested on: Eotaxin-3 (CCL26) release in human whole blood stimulated with IL-4
assay-summary: Human whole blood eotaxin-3 assay (IL-4 stimulated eotaxin-3 release)
Assay type: cell-based
applied-conditions: Homo sapiens, 48 h, human whole blood stimulated with recombinant human IL-4, 48 h; given for test compounds with <80% Emax; geometric mean
# Lookup of reported Emax keyed by entry

>  <compound>
CN(C)C(=O)c1ccc(C2=CCN(Cc3cc4c(-n5ccc6c(c5=O)CCN6)ccnc4n3C)CC2)cc1F

>  <Emax>
30 to 40%

$$$$
>  <compound>
Cc1cc(C(=O)N(C)C)nnc1C1=CCN(Cc2cc3c(-n4ccc5c(c4=O)CCN5)ccnc3n2C)CC1

>  <Emax>
30 to 40%

$$$$
>  <compound>
C[C@H](c1cc2c(-n3ccc(N)c(F)c3=O)ccnc2n1C)N1CC=C(c2ccc(C(=O)N(C)C)cn2)CC1 (single isomer, unassigned)

>  <Emax>
< 20%

$$$$
>  <compound>
CNc1ccn(-c2ccnc3c2cc(CN2CC[C@@H](c4ccc(C(=O)N(C)C)cc4)C[C@@H]2C)n3C)c(=O)c1 (single isomer, unassigned)

>  <Emax>
< 20%

$$$$
>  <compound>
[2H]C([2H])([2H])N(C(=O)c1ccc(C2CCN([C@@H](C)c3cc4c(-n5c(F)cc(NC)cc5=O)ccnc4n3C)CC2)cc1)C([2H])([2H])[2H]

>  <Emax>
10 to 20%

$$$$
>  <compound>
[2H]C([2H])([2H])N(C(=O)c1ccc(C2CCN(Cc3cc4c(-n5ccc6c(c5=O)CCN6)ccnc4n3C)CC2)cc1)C([2H])([2H])[2H]

>  <Emax>
70 to 80%

$$$$

* * *

study-target: Human STAT6 (truncated, aa122-658, with N-terminal His-tag) (Homo sapiens, UniProt P42226)
Construct: Human STAT6 (truncated, aa122-658, with N-terminal His-tag, expressed in insect cells); His-tag (N)
assay-summary: Surface plasmon resonance (SPR) assay, binding to human STAT6
applied-conditions: Biacore 8K, 25° C, immobilized human STAT6 on CM5 chip, multi-cycle kinetics; geometric mean
# Lookup of reported Kd keyed by entry
recorded-metric: Kd (nM)

>  <compound>
CN(C)C(=O)c1ccc(C2CCN(Cc3cc4c(-n5ccc(N)c(Br)c5=O)ccnc4n3C)CC2)cc1 [Example 1d20]

>  <quantitative-result>
16.1

$$$$
>  <compound>
CNc1ccn(-c2ccnc3c2cc(CN2CCN(c4ccc(C(=O)N(C)C)cc4C)C[C@H]2C)n3C)c(=O)c1 [Example 1m19]

>  <quantitative-result>
23.5

$$$$
>  <compound>
CNc1ccn(-c2ccnc3c2cc(CN2CCC(c4ccc(C(=O)N(C)C)cc4)CC2=O)n3C)c(=O)c1 (stereo not drawn) [Example 1f8]

>  <quantitative-result>
134

$$$$
>  <compound>
CNc1ccn(-c2ccnc3c2cc(CN2CC[C@@H](c4ccc(C(=O)N(C)C)cc4)[C@H](F)C2)n3C)c(=O)c1 (single isomer, unassigned) [Example 1f4]

>  <quantitative-result>
32.2

$$$$
>  <compound>
CNc1ccn(-c2ccnc3c2cc(CN2CCC(c4ccc(C(=O)N(C)C)cc4)C(F)(F)C2)n3C)c(=O)c1 (single isomer, unassigned) [Example 1f2]

>  <quantitative-result>
81.3

$$$$
>  <compound>
CNc1ccn(-c2ccnc3c2cc(CN2CCN(c4ccc(C(=O)N(C)C)cc4)C[C@H]2C)n3C)c(=O)c1 [Example 1m2]

>  <quantitative-result>
188

$$$$

* * *

# Lookup of reported pKd keyed by entry
study-target: Human STAT6 (truncated, aa122-658, with N-terminal His-tag) (Homo sapiens, UniProt P42226)
Construct: Human STAT6 (truncated, aa122-658, with N-terminal His-tag, expressed in insect cells); His-tag (N); made in house; host or cells: insect cells
assay-summary: Surface plasmon resonance (SPR) assay, binding to human STAT6
applied-conditions: Biacore 8K, 25° C, immobilized human STAT6 on CM5 chip, multi-cycle kinetics; geometric mean
pKd: −log10 of the molar value.
recorded-metric: pKd

>  <compound>
CN(C)C(=O)c1ccc(C2CCN(Cc3cc4c(-n5ccc6[nH]nc(C(F)(F)F)c6c5=O)ccnc4n3C)CC2)cc1 [Example 1ab3]

>  <quantitative-result>
7.69

$$$$
>  <compound>
CNc1ccn(-c2ccnc3c2cc(CN2CC[C@H](c4ccc(C(=O)N(C)C)cc4)C(F)(F)C2)n3C)c(=O)c1 (stereo in doubt) [Example 1f1]

>  <quantitative-result>
7.82

$$$$
>  <compound>
CN(C)C(=O)c1ccc(C2CCN(Cc3cc4c(-n5ccc(NC(=O)OC(C)(C)C)cc5=O)ccnc4n3C)CC2)cc1 [Example 1d2]

>  <quantitative-result>
6.76

$$$$
>  <compound>
CCN(CC)C(=O)c1ccc(C2CCN(Cc3cc4c(-n5ccc(NC)cc5=O)ccnc4n3C)CC2)cc1 [Example 1d10]

>  <quantitative-result>
7.64

$$$$
>  <compound>
CCOC(=O)Nc1ccn(-c2ccnc3c2cc(CN2CCC(c4ccc(C(=O)N(C)C)cc4)CC2)n3C)c(=O)c1 [Example 1d5]

>  <quantitative-result>
6.75

$$$$
>  <compound>
CN(C)C(=O)c1ccc(C2CCN(Cc3cc4c(-n5ccc(N)c(C(F)(F)F)c5=O)ccnc4n3C)CC2)cc1 [Example 1d29]

>  <quantitative-result>
7.54

$$$$
>  <compound>
CNc1ccn(-c2ccnc3c2cc(CN2CCC(F)(c4ccc(C(=O)N(C)C)cc4)CC2)n3C)c(=O)c1 [Example 1f5]

>  <quantitative-result>
6.81

$$$$
>  <compound>
CNc1ccn(-c2ccnc3c2cc(CN2CCN(c4ccc(C(=O)N(C)C)cc4)CC2)n3C)c(=O)c1 [Example 1m3]

>  <quantitative-result>
6.61

$$$$
>  <compound>
CN(C)C(=O)c1ccc(C2CCN(Cc3cc4c(-n5cc(F)c(N)nc5=O)ccnc4n3C)CC2)cc1 [Example 1ac2]

>  <quantitative-result>
7.12

$$$$
>  <compound>
CN(C)C(=O)c1ccc(C2CCN(Cc3cc4c(-n5ccc(N)cc5=O)ccnc4n3C)CC2)cc1 [Example 1d1]

>  <quantitative-result>
7.90

$$$$
>  <compound>
CNc1ccn(-c2ccnc3c2cc([C@H](C)N2CCC(c4ccc(C(=O)N(C)C)cc4)CC2)n3C)c(=O)c1 (single isomer, unassigned) [Example 1m72]

>  <quantitative-result>
6.47

$$$$
>  <compound>
CN(C)C(=O)c1ccc(C2CCN(Cc3cc4c(-n5ccc6[nH]ncc6c5=O)ccnc4n3C)CC2)cc1 [Example 1j27]

>  <quantitative-result>
8.01

$$$$
>  <compound>
CNc1ccn(-c2ccnc3c2cc([C@@H](C)N2CCC(c4ccc(C(=O)N(C)C)cc4)CC2)n3C)c(=O)c1 (single isomer, unassigned) [Example 1m73]

>  <quantitative-result>
7.92

$$$$
>  <compound>
CN(C)C(=O)c1ccc(C2CCN(Cc3cc4c(-n5ccc(N)nc5=O)ccnc4n3C)CC2)cc1 [Example 1ab6]

>  <quantitative-result>
7.43

$$$$
